- Species: Rattus norvegicus
- ASSAY_INFO: Plasma concentration in rat at […]
- Assay type: ADME, organism-based
- ASSAY_CONTEXT: in vivo
REPORTED_ENDPOINT: concentration (nM)
All answers are understood in nM, so give the number only.

Ask | Given the entry `COc1cc(-c2nn([C@H]3CC[C@H](N4CCN(C(C)=O)CC4)CC3)c3ncnc(N)c23)ccc1NC(=O)c1cc2ccccc2n1C` , report its measured concentration.
Reply | 350

###

- ASSAY_INFO: Tmax in mouse
- Assay type: ADME, organism-based
- ASSAY_CONTEXT: in vivo
REPORTED_ENDPOINT: Tmax (h)
All answers are understood in h, so give the number only.

Ask | Given the entry `COc1cc(-c2nn([C@H]3CC[C@H](N4CCN(C(C)=O)CC4)CC3)c3ncnc(N)c23)ccc1NC(=O)c1cc2ccccc2n1C` , report its measured Tmax.
Reply | 1

The reported measurements were obtained from ChEMBL document CHEMBL1148543.
